The following variants are shown together with reported ratio to parent values.
B1: mAb G196 [mouse] / biotin-SGSGSDLVPRG [modified: biotin on the N-terminus; biotin on the N-terminus] (parent complex)
chain 1: QVKLQESGAELVKPGASVKLSCKASGYTFTNYWMHWVKLRPGQGFEWIGEINPSNGGSNYNEKFKRKATLTVDKSSSTAYMQLSSLTSEDSAVFYCSIWDSYFDYWGQGTTLTVSSAKTTPPSVYPLAPGSAAQTNSMVTLGCLVKGYFPEPVTVTWNSGSLSSGVHTFPAVLQSDLYTLSSSVTVPSSPWPSETVTCNVAHPASSTKVDKKIVPRDC
chain 2: NIVMTQSPKSMSMSVGERVTLTCKASENVVTYVSWYQQKPEQSPKLLIYGASNRYTGVPDRFTGSGSATDFTLTISSVQAEDLADYHCGQGYSYPYTFGGGTKLEIKRADAAPTVSIFPPSSEQLTSGGASVVCFLNNFYPKDINVKWKIDGSERQNGVLNSWTDQDSKDSTYSMSSTLTLTKDEYERHNSYTCEATHKTSTSPIVKSFNRNEC
chain 3: SGSGSDLVPRG

variants of: B1; test: permutation ELISA (densitometry of spots); parent: 1; read off a plot

These solved cases illustrate the format of a correct answer.
>  <Change>
chain 3 V8Y

>  <Value reported>
~0.05

$$$$
>  <Change>
chain 3 P9S

>  <Value reported>
~0.81

$$$$
>  <Change>
chain 3 P9V

>  <Value reported>
~0.87

$$$$
>  <Change>
chain 3 P9H

>  <Value reported>
~0.74

$$$$

The variant chain 3 V8R showed ratio to parent equal to ~0.07

Per the record, chain 3 V8C has ratio to parent of ~0.08

In plain terms, chain 3 D6K has a documented ratio to parent of ~0.05

The variant chain 3 D6P showed ratio to parent equal to ~0.16

Reported ratio to parent for chain 3 L7S was ~0.06

Sure, the documented ratio to parent for chain 3 V8A is ~0.82
